target_or_test_system: ERα (Homo sapiens, UniProt P03372)
Construct: host or cells: MCF7
Sequence (P03372 whole entry): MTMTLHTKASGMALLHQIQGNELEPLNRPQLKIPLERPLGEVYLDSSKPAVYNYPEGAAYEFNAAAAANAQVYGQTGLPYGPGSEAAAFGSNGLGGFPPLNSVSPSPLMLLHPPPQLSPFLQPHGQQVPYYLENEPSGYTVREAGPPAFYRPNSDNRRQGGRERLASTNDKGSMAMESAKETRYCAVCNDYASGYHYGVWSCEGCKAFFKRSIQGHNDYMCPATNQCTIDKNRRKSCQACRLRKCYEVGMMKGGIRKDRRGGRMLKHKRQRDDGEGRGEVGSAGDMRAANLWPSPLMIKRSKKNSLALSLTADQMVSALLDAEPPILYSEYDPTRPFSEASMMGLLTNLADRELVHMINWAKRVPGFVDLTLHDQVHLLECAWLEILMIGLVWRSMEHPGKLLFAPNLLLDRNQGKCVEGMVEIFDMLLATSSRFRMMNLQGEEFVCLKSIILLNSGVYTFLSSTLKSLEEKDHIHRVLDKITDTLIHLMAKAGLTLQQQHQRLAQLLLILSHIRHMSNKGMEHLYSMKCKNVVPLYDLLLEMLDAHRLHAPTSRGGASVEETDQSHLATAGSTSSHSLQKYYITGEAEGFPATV
test: Estrogen receptor degradation activity: breast cancer cell ERα in cell western assay (MCF7 cells)
Type: cell-based
run_parameters: 0.3 μM, 4 hours, relative to fulvestrant 0.1 μM positive control
For each record, check the reported % Degradation At 0.3 μM: if it is below 90% write yes, else write no.

Worked set:
O=C(O)c1ccc2c(c1)CCCC(c1ccc(Cl)cc1C(F)(F)F)=C2c1ccc(C=C2CN(CCCF)C2)cc1: yes
CCc1cc(F)ccc1C1=C(c2ccc(C=C3CN(CCCF)C3)cc2)c2ccc(C(=O)O)cc2CCC1: no
Cc1c(F)ccc(C2=C(c3ccc(C=C4CN(CCC(F)F)C4)cc3)c3ccc(C(=O)O)cc3CCC2)c1C: no

Then this molecule:
Prompt: Here's an entry: "Cc1cc(C2=C(c3ccc(Cl)cc3Cl)CCCc3cc(C(=O)O)ccc32)cc(F)c1C=C1CN(CCCF)C1.Cl" . Is its % Degradation At 0.3 μM below 90%?
Response: no

* * *

target_or_test_system: ERα (Homo sapiens)
Construct: host or cells: MCF7
test: Estrogen receptor degradation activity: breast cancer cell ERα in cell western assay (MCF7 cells)
Format: cell-based
run_parameters: 4 hours post compound addition, concentration which degrades 50% of the estrogen receptor, read-out: Degradation IC50
DC50 vs 0.6 nM: less than gives TRUE; not less than gives FALSE.

Cc1ccc(C2=C(c3ccc(C=C4CN(CCCF)C4)cc3)c3ccc(C(=O)O)cc3CCC2)c(C)c1: TRUE

Prompt: Consider the compound "O=C(O)c1ccc2c(c1)CCCC(c1ccc(F)cc1F)=C2c1cc(F)c(C=C2CN(CCCF)C2)c(F)c1" . Is its DC50 strictly less than 0.6 nM?
Response: TRUE

* * *

target_or_test_system: ERα (Homo sapiens)
Construct: host or cells: MCF7
test: Estrogen receptor degradation activity: breast cancer cell ERα in cell western assay (MCF7 cells)
Type: cell-based
run_parameters: 4 hours post compound addition, concentration which degrades 50% of the estrogen receptor, read-out: Degradation IC50
Catalogue of DC50 readings, one per entry.

[2H]C([2H])(CC(F)F)N1CC(=Cc2ccc(C3=C(c4ccc(Cl)cc4Cl)CCCc4cc(C(=O)O)ccc43)cc2)C1 [Example 117]: 0.9 nM
Cc1cc(F)ccc1C1=C(c2ccc(C=C3CN(CCCF)C3)cc2F)c2ccc(C(=O)O)cc2CCC1 [Example 11]: 0.3 nM

Looking up Cc1c(Cl)cccc1C1=C(c2ccc(C=C3CN(CCCF)C3)cc2)c2ccc(C(=O)O)cc2CCC1 [Example 72] , I see its DC50 listed as 0.3 nM

# molecule O=C(O)c1ccc2c(c1)CCCC(c1cccc(Cl)c1F)=C2c1ccc(C=C2CN(CCCF)C2)cc1 [Example 47] ; its DC50 = 0.3 nM

* * *

Let's look at some molecules and their measured DC50.
target_or_test_system: ERα (Homo sapiens, UniProt P03372)
Construct: host or cells: MCF7
test: Estrogen receptor degradation activity: breast cancer cell ERα in cell western assay (MCF7 cells)
Assay type: cell-based
run_parameters: 4 hours post compound addition, concentration which degrades 50% of the estrogen receptor, read-out: Degradation IC50
Experimental: Test: Estrogen Receptor Degradation Activity Said test involves measuring the in vitro degradation activity of the compounds of the Table 1a. The measurements of the degradation activities were made using a breast cancer cell ERα in cell western assay as described hereunder. […] Integrated intensities in the green fluorescence and red fluorescence were measured to determine the levels of ERα and DNA respectively. […]
Respond with the bare value in pM.

O=C(O)c1ccc2c(c1)CCCC(c1ccc(C(F)(F)F)cc1F)=C2c1ccc(C=C2CN(CCCF)C2)cc1: 300
Cc1cccc(C2=C(c3ccc(C=C4CN(CCC(F)F)C4)cc3)c3ccc(C(=O)O)cc3CCC2)c1C(F)(F)F: 700
CCOc1ccc(C2=C(c3ccc(C=C4CN(CCCF)C4)cc3)c3ccc(C(=O)O)cc3CCC2)cc1C(F)(F)F: 400
Cc1cc(F)ccc1C1=C(c2cc(C)c(C=C3CN(CCCF)C3)c(F)c2)c2ccc(C(=O)O)cc2CCC1: 1000
FCCCN1CC(=Cc2ccc(C3=C(c4ccccc4Cl)CCCc4ccccc43)cc2)C1: 2680

Observed DC50 on ERα (Homo sapiens, UniProt P03372), entry "CCc1cc(F)ccc1C1=C(c2ccc(C=C3CN(CCCF)C3)cc2)c2ccc(C(=O)O)cc2CCC1" , equals 200

Result for "Cc1cccc(C2=C(c3ccc(C=C4CN(CCCF)C4)cc3)c3ccc(C(=O)O)cc3CCC2)c1Cl" , tested on ERα (Homo sapiens, UniProt P03372), DC50: 500

Lab entry: ERα (Homo sapiens, UniProt P03372) assay, molecule CC1(C)CCCC(C2=C(c3ccc(C=C4CN(CCCF)C4)cc3)c3ccc(C(=O)O)cc3CCC2)C1 (single isomer, unassigned) [Example 171] , DC50 = 400

* * *

Quick reference for % Degradation At 0.3 μM among some molecules
target_or_test_system: ERα (Homo sapiens, UniProt P03372)
Construct: host or cells: MCF7
test: Estrogen receptor degradation activity: breast cancer cell ERα in cell western assay (MCF7 cells)
Assay type: cell-based
run_parameters: 0.3 μM, 4 hours, relative to fulvestrant 0.1 μM positive control
# value in %; strip the unit string

Example cases with answers are listed next.
O=C(O)c1ccc2c(c1)CCCC(c1ccc(F)c3c1CCC3)=C2c1ccc(C=C2CN(CCCF)C2)cc1 [Example 12]: 93
FCCCN1CC(=Cc2ccc(C3=C(c4ccccc4Cl)CCCc4ccccc43)cc2)C1 [Example 120]: 98
O=C(O)c1ccc2c(c1)CCCC(CC1CCC1)=C2c1ccc(C=C2CN(CCCF)C2)cc1 [Example 169]: 90
O=C(O)c1ccc2c(c1)CCCC(c1cccc(Cl)c1C(F)(F)F)=C2c1ccc(C=C2CN(CCC(F)F)C2)cc1 [Example 13]: 89

Below: the item to evaluate.
Lab book: % Degradation At 0.3 μM of O=C(O)c1ccc2c(c1)CCCC(c1ccc(Cl)cc1Cl)=C2c1ncc(C=C2CN(CCCF)C2)cc1F [Example 158] noted as 94

* * *

target_or_test_system: ERα (Homo sapiens)
Construct: host or cells: MCF7
test: Estrogen receptor degradation activity: breast cancer cell ERα in cell western assay (MCF7 cells)
Format: cell-based
run_parameters: 0.3 μM, 4 hours, relative to fulvestrant 0.1 μM positive control
Recorded measurements of % Degradation At 0.3 μM, one per entry

Below are worked cases with known answers.
O=C(O)c1ccc2c(c1)CCCC(c1ccc(Cl)cc1Cl)=C2c1ccc(C=C2CN(CCCF)C2)cc1: 96%
Cc1cc(F)ccc1C1=C(c2ccc(C=C3CN(CCCF)C3)cc2C#N)c2ccc(C(=O)O)cc2CCC1: 97%
CC(C)CC1=C(c2ccc(C=C3CN(CCCF)C3)cc2)c2ccc(C(=O)O)cc2CCC1: 94%
Cc1cc(F)ccc1C1=C(c2ccc(C=C3CN(CCCF)C3)cc2C(F)(F)F)c2ccc(C(=O)O)cc2CCC1: 95%
O=C(O)c1ccc2c(c1)CCCC(c1cc(C(F)(F)F)ccc1Cl)=C2c1ccc(C=C2CN(CCCF)C2)cc1: 92%
Cc1cc(F)cc(C)c1C1=C(c2ccc(C=C3CN(CCCF)C3)cc2)c2ccc(C(=O)O)cc2CCC1: 93%

The recorded % Degradation At 0.3 μM for "Cc1c(C#N)cccc1C1=C(c2ccc(C=C3CN(CCCF)C3)cc2)c2ccc(C(=O)O)cc2CCC1" is 87%

// "O=C(O)c1ccc2c(c1)CCCC(c1ccc(F)cc1C1CC1)=C2c1ccc(C=C2CN(CCCF)C2)cc1" : % Degradation At 0.3 μM value = 87%

% Degradation At 0.3 μM reported for this compound "Cc1cc(C=C2CN(CCCF)C2)cc(F)c1C1=C(c2ccc(F)cc2F)CCCc2cc(C(=O)O)ccc21" : 92%

The reported value for "O=C(O)c1ccc2c(c1)CCCC(c1cc(F)cc3c1CCC3)=C2c1ccc(C=C2CN(CCC(F)F)C2)cc1" in terms of % Degradation At 0.3 μM is 93%

Entry "Cl.O=C(O)c1ccc2c(c1)CCCC(c1ccc(Cl)cc1Cl)=C2c1ccc(C=C2CN(CCCF)C2)c(F)c1" , % Degradation At 0.3 μM reported as 92%

get_value(item= "COc1ccc(C2=C(c3ccc(C=C4CN(CCCF)C4)cc3)c3ccc(C(=O)O)cc3CCC2)c(Cl)c1" , readout=% Degradation At 0.3 μM) returns 92%

The reported value for "CC(=C1CN(CCCF)C1)c1ccc(C2=C(c3ccc(Cl)cc3Cl)CCCc3cc(C(=O)O)ccc32)cc1" in terms of % Degradation At 0.3 μM is 89%

Looking up "O=C(O)c1ccc2c(c1)CCCC(c1cccc(C(F)(F)F)c1Cl)=C2c1ccc(C=C2CN(CCC(F)F)C2)cc1" , I see its % Degradation At 0.3 μM listed as 92%

Data point: "CCOc1ccc(C2=C(c3ccc(C=C4CN(CCCF)C4)cc3)c3ccc(C(=O)O)cc3CCC2)cc1C(F)(F)F" ; % Degradation At 0.3 μM = 87%

The recorded % Degradation At 0.3 μM for entry "Cc1c(F)ccc(C2=C(c3ccc(C=C4CN(CCCF)C4)cc3)c3ccc(C(=O)O)cc3CCC2)c1C" equals 94%

% Degradation At 0.3 μM recorded for this compound, O=C(O)c1ccc2c(c1)CCCC(C1CC13CCC3)=C2c1ccc(C=C2CN(CCCF)C2)cc1 (stereo not shown) , is 93%

Noted for "O=C(O)c1ccc2c(c1)CCCC(c1cccc(Cl)c1C(F)(F)F)=C2c1ccc(C=C2CN(CCC(F)(F)F)C2)cc1" : its % Degradation At 0.3 μM reads 93%

Recorded result, "Cc1cccc(C2=C(c3ccc(C=C4CN(CCC(F)F)C4)cc3)c3ccc(C(=O)O)cc3CCC2)c1C(F)(F)F" , % Degradation At 0.3 μM: 90%
